Would you kindly list cytotoxicity at 70.5 h for each of these compounds?
Test: Human HepG2 cell viability assay in 384 well format
Type: toxicity, cell-based
Set-up: dose 125 nL, time 70.5 hour; concentration not given beside the values
Details: HepG2 cells, read-out: Inhibition
Please state the figure in %; there is no need to write the unit.

// returns reported cytotoxicity at 70.5 h for input CCN1CCO[C@@H]2CN(C(=O)c3ccc4[nH]ccc4c3)CC[C@@H]2C1
-7.4

// returns reported cytotoxicity at 70.5 h for input Cc1noc([C@@H]2C[C@@H]3CCN(CC4CCOCC4)C[C@H]3O2)n1
-4.62

// returns reported cytotoxicity at 70.5 h for input Cc1ccc(F)c2c1CCCN2CC(=O)NC1CCS(=O)(=O)C1 (stereo not given)
-4.5

// returns reported cytotoxicity at 70.5 h for input COc1cc2c(cc1-c1nc3c(cnn3C(C)C3CC3)[nH]1)OCO2 (stereo not given)
-2.31

// returns reported cytotoxicity at 70.5 h for input COc1ccc(F)c(F)c1C(=O)N1C[C@@H](CN(C)CCO)[C@@H](CO)C1
17

// returns reported cytotoxicity at 70.5 h for input CC(C)c1noc(C(C)S(=O)(=O)CC(=O)N2CCCC2)n1 (stereo not given)
17.4

// returns reported cytotoxicity at 70.5 h for input CC(=O)N1CCC2(CCN(C(=O)c3ccc(F)c(C(F)(F)F)c3)CC2)C1
-6.93

// returns reported cytotoxicity at 70.5 h for input Cc1ccc(CN2C[C@H]3OC(=O)N(Cc4ccccn4)[C@H]3C2)o1
2.3

// returns reported cytotoxicity at 70.5 h for input Cc1cccc(CN2CCN(Cc3ccccc3)CC(O)C2)n1 (stereo not given)
-12.1

// returns reported cytotoxicity at 70.5 h for input Cc1cc(NC(=O)CNC2CCc3ncnn3C2)on1 (stereo not given)
9.31
